Conditions: in isopropanol, 305.65 K
readout-label: solubility (mole fraction)
Response field accepts a number only; no unit should be typed.

q: Sample "Nc1cc(Cl)ccc1C(=O)O" — what was its solubility (mole fraction)?
a: 0.0227

----------
Conditions: in ethanol, 288.15 K
readout-label: solubility (mole fraction)

q: Sample "Nc1cc(Cl)ccc1C(=O)O" — what was its solubility (mole fraction)?
a: 0.014

----------
Conditions: in ethylbenzene, 280.65 K
readout-label: solubility (mole fraction)
Response field accepts a number only; no unit should be typed.

q: Sample "Nc1cc(Cl)ccc1C(=O)O" — what was its solubility (mole fraction)?
a: 0.00013

----------
Conditions: in NMP, 300.65 K
readout-label: solubility (mole fraction)

q: Sample "Nc1cc(Cl)ccc1C(=O)O" — what was its solubility (mole fraction)?
a: 0.0487

----------
Conditions: in NMP, 308.15 K
readout-label: solubility (mole fraction)
Response field accepts a number only; no unit should be typed.

q: Sample "Nc1cc(Cl)ccc1C(=O)O" — what was its solubility (mole fraction)?
a: 0.0556

----------
Details: in isopropanol, 280.65 K
readout-label: solubility (mole fraction)

q: Sample "Nc1cc(Cl)ccc1C(=O)O" — what was its solubility (mole fraction)?
a: 0.0101

----------
Details: in isopropanol, 283.15 K
readout-label: solubility (mole fraction)

q: Sample "Nc1cc(Cl)ccc1C(=O)O" — what was its solubility (mole fraction)?
a: 0.0111

----------
Settings: in toluene, 280.65 K
readout-label: solubility (mole fraction)
Response field accepts a number only; no unit should be typed.

q: Sample "Nc1cc(Cl)ccc1C(=O)O" — what was its solubility (mole fraction)?
a: 0.000157

----------
Details: in ethanol, 300.65 K
readout-label: solubility (mole fraction)
Response field accepts a number only; no unit should be typed.

q: Sample "Nc1cc(Cl)ccc1C(=O)O" — what was its solubility (mole fraction)?
a: 0.0205

----------
Settings: in n-butanol, 278.15 K
readout-label: solubility (mole fraction)
Response field accepts a number only; no unit should be typed.

q: Sample "Nc1cc(Cl)ccc1C(=O)O" — what was its solubility (mole fraction)?
a: 0.00768

----------
Conditions: in NMP, 285.65 K
readout-label: solubility (mole fraction)
Response field accepts a number only; no unit should be typed.

q: Sample "Nc1cc(Cl)ccc1C(=O)O" — what was its solubility (mole fraction)?
a: 0.037

----------
Details: in acetone, 295.65 K
readout-label: solubility (mole fraction)
Response field accepts a number only; no unit should be typed.

q: Sample "Nc1cc(Cl)ccc1C(=O)O" — what was its solubility (mole fraction)?
a: 0.0283

----------
Settings: in 1,4-dioxane, 285.65 K
readout-label: solubility (mole fraction)
Response field accepts a number only; no unit should be typed.

q: Sample "Nc1cc(Cl)ccc1C(=O)O" — what was its solubility (mole fraction)?
a: 0.0173

----------
Conditions: in acetone, 280.65 K
readout-label: solubility (mole fraction)
Response field accepts a number only; no unit should be typed.

q: Sample "Nc1cc(Cl)ccc1C(=O)O" — what was its solubility (mole fraction)?
a: 0.0174

----------
Conditions: in ethanol, 308.15 K
readout-label: solubility (mole fraction)
Response field accepts a number only; no unit should be typed.

q: Sample "Nc1cc(Cl)ccc1C(=O)O" — what was its solubility (mole fraction)?
a: 0.0255

----------
Conditions: in toluene, 283.15 K
readout-label: solubility (mole fraction)
Response field accepts a number only; no unit should be typed.

q: Sample "Nc1cc(Cl)ccc1C(=O)O" — what was its solubility (mole fraction)?
a: 0.00018
